Tested on: MDRPA
Experiment: MIC determination, microdilution broth method;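 note: broth microdilution per NCCLS recommendations, testing Pithecellobium clypearia water or ethanol extracts against multidrug-resistant Pseudomonas aeruginosa, with MIC50 and MIC90 derived statistically from individual MICs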
Conditions: Pseudomonas aeruginosa, read-out: MIC (single use), strain P1; EA=P. clypearia water extract
readout: MIC (µg/mL)
Kindly answer with a numeric value in µg/mL, unit omitted.

Example compounds with recorded MIC:
>  <compoundString>
NCC[C@H](O)C(=O)N[C@@H]1C[C@H](N)[C@@H](O[C@H]2O[C@H](CN)[C@@H](O)[C@H](O)[C@H]2O)[C@H](O)[C@H]1O[C@H]1O[C@H](CO)[C@@H](O)[C@H](N)[C@H]1O

>  <testTarget>
MDRPA

>  <unitsOfMeasure>
µg/mL

>  <numericReadout>
1

$$$$
>  <compoundString>
CCN1CCN(C(=O)N[C@@H](C(=O)N[C@@H]2C(=O)N3C(C(=O)O)=C(CSc4nnnn4C)CS[C@H]23)c2ccc(O)cc2)C(=O)C1=O

>  <testTarget>
MDRPA

>  <unitsOfMeasure>
µg/mL

>  <numericReadout>
128

$$$$
>  <compoundString>
C[C@H]1COc2c(N3CCN(C)CC3)c(F)cc3c(=O)c(C(=O)O)cn1c23

>  <testTarget>
MDRPA

>  <unitsOfMeasure>
µg/mL

>  <numericReadout>
32

$$$$
>  <compoundString>
C[C@@H](O)[C@H]1C(=O)N2C(C(=O)O)=C(SCCN=CN)C[C@H]12

>  <testTarget>
MDRPA

>  <unitsOfMeasure>
µg/mL

>  <numericReadout>
32

$$$$

Problem: Return reported MIC; argument: CC(C)(O/N=C(\C(=O)N[C@@H]1C(=O)N2C(C(=O)[O-])=C(C[n+]3ccccc3)CS[C@H]12)c1csc(N)n1)C(=O)O
Solution: 32
